Reference source for all entries: ChEMBL document CHEMBL1132951

target_system: Poly [ADP-ribose] polymerase 1 (Homo sapiens)
method_summary: In vitro inhibition against human full length PARP protein
recorded_metric: Ki

Task item: Specify measured Ki for NC(=O)c1cccc2[nH]c(-c3ccc([N+](=O)[O-])cc3)nc12 .
Reply: 8 nM

---

Assay system Poly [ADP-ribose] polymerase 1 (Homo sapiens, UniProt P09874); read-out recorded as pKi.
# log scale: pKi equals minus log10 of the concentration in mol/L

A selection of reference data follows.
- NC(=O)c1cccc2[nH]c(-c3cccc(CO)c3)nc12: 8.17
- NC(=O)c1cccc2[nH]c(-c3cccc(Cl)c3)nc12: 8.08
- NC(=O)c1cccc2[nH]c(C(F)(F)F)nc12: 6.46
- NC(=O)c1cccc2[nH]c(-c3ccccc3CO)nc12: 7.97
- COc1ccc(-c2nc3c(C(N)=O)cccc3n2C)cc1: 7.49

Task item: Please report pKi with Poly [ADP-ribose] polymerase 1 (Homo sapiens, UniProt P09874) for item N#Cc1ccc(-c2nc3c(C(N)=O)cccc3[nH]2)cc1 .
Sequence (P09874 whole entry): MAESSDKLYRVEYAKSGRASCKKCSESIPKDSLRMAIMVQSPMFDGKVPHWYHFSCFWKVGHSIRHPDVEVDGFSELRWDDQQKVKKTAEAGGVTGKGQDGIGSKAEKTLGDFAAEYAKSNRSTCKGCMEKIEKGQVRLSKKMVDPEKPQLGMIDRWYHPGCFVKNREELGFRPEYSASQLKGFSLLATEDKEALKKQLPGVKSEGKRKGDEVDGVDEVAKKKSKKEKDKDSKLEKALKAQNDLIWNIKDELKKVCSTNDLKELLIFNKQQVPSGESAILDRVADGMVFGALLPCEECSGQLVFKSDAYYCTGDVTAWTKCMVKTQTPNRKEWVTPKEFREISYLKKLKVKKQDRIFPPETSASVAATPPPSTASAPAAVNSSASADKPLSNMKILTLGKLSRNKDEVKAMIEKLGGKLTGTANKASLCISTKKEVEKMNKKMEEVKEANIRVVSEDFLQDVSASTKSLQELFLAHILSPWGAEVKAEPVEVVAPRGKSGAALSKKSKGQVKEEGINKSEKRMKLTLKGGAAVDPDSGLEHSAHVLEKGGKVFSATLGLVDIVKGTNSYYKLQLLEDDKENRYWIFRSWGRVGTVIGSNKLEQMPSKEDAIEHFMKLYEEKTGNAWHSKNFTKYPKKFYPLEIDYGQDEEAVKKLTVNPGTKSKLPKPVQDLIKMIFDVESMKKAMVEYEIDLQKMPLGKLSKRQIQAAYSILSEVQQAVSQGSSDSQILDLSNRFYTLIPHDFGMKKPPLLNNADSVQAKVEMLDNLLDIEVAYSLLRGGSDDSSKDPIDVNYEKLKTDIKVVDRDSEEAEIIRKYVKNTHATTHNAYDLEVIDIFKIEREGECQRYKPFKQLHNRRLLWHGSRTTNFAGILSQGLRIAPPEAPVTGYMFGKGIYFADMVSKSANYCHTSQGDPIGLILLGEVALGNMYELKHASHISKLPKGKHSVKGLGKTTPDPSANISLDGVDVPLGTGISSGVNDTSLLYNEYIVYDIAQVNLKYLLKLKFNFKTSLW
Reply: 8.40

Task item: Specify pKi for COc1ccc(-c2nc3c(C(N)=O)cccc3[nH]2)cc1O , system Poly [ADP-ribose] polymerase 1 (Homo sapiens, UniProt P09874).
Reply: 8.70

Task item: Report pKi under test system Poly [ADP-ribose] polymerase 1 (Homo sapiens, UniProt P09874) for C=CCOc1cc(-c2nc3c(C(N)=O)cccc3[nH]2)ccc1OC .
Reply: 8.03

---

target_system: Poly [ADP-ribose] polymerase 1 (Homo sapiens)
Measured Ki, listed per entry for reference.
All answers are understood in nM, so give the number only.

- NC(=O)c1cccc2[nH]c(-c3ccccc3C(F)(F)F)nc12: 190

# ---- query compound ----
Task item: Return Ki (reported value) for this compound: NC(=O)c1cccc2[nH]c(-c3ccccc3Cl)nc12
Reply: 9.4

---

Listing of entries alongside the reported log10 of Ki.
target_system: Poly [ADP-ribose] polymerase 1 (Homo sapiens)
A value of 2 here means Ki of 100 in nM, since values are log10.

- NC(=O)c1cccc2[nH]c(-c3ccc4c(c3)OCO4)nc12: 0.77

Task item: Supply log10 of Ki value. Item: NC(=O)c1cccc2nc(-c3ccc(O)cc3)[nH]c12
Reply: 0.78

Task item: Answer with reported log10 of Ki of NC(=O)c1cccc2[nH]cnc12
Reply: 1.98

Task item: Using known records, supply log10 of Ki for COc1ccc(-c2nc3c(C(N)=O)cccc3[nH]2)cc1
Reply: 0.83

Task item: Annotate the molecule NC(=O)c1cccc2[nH]c(-c3cccc(C(F)(F)F)c3)nc12 with its measured log10 of Ki.
Reply: 0.90

Task item: Return log10 of Ki (reported value) for this molecule: CN(C)c1ccc(-c2nc3c(C(N)=O)cccc3[nH]2)cc1
Reply: 0.76

---

target_system: Poly [ADP-ribose] polymerase 1 (Homo sapiens, UniProt P09874)
// reported pKi per item
// scale note: pKi = -log10(conc_M); give the bare number

Below, 5 compounds whose answers are already recorded.
* COc1ccccc1-c1nc2c(C(N)=O)cccc2[nH]1 | 6.90
* O=C(O)c1cccc2[nH]c(-c3ccc(O)cc3)nc12 | 5.00
* COc1cc(-c2nc3c(C(N)=O)cccc3[nH]2)cc(OC)c1OC | 6.87
* CC(C)[Si](OCc1ccc(-c2nc3c(C(N)=O)cccc3[nH]2)cc1)(C(C)C)C(C)C | 7.07
* NC(=O)c1cccc2[nH]c(-c3cccc(O)c3)nc12 | 8.20

Task item: Enter measured pKi, system Poly [ADP-ribose] polymerase 1 (Homo sapiens, UniProt P09874), for the compound shown: NC(=O)c1cccc2nc(-c3ccc(N)cc3)[nH]c12
Reply: 7.96

Task item: Report its pKi with Poly [ADP-ribose] polymerase 1 (Homo sapiens, UniProt P09874) as the test system: COc1ccc(-c2nc3c(C(N)=O)cccc3[nH]2)cc1OC
Reply: 8.27

Task item: Specify the recorded pKi for NC(=O)c1cccc2[nH]c(-c3ccc(CO)cc3)nc12 , system: Poly [ADP-ribose] polymerase 1 (Homo sapiens, UniProt P09874).
Reply: 8.80
